Target: sGC α1/β1 heterodimer stably expressed in CHO-K1 cell line (CHO-K1/sGC) (Homo sapiens, UniProt Q02108+Q02153)
Construct: expressed in transfected cells
Sequence (Q02108 whole entry): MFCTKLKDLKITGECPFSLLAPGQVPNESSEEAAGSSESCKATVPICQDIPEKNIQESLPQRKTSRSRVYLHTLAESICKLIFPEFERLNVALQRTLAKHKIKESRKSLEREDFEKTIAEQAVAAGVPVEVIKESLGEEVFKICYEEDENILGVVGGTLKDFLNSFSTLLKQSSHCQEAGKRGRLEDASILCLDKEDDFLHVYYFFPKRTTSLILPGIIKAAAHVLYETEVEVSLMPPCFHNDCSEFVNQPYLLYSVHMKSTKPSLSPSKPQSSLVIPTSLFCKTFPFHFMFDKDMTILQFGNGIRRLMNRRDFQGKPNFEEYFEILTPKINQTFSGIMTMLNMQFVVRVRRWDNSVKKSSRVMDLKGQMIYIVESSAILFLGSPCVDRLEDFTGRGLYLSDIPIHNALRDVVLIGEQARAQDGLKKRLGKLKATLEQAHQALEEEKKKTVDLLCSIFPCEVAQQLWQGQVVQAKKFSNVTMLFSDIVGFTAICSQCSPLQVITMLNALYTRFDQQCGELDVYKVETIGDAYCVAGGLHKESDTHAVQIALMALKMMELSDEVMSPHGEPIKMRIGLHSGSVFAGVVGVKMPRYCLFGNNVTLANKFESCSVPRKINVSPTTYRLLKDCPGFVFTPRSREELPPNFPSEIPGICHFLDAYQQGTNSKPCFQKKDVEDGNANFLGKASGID
Sequence (Q02153 whole entry): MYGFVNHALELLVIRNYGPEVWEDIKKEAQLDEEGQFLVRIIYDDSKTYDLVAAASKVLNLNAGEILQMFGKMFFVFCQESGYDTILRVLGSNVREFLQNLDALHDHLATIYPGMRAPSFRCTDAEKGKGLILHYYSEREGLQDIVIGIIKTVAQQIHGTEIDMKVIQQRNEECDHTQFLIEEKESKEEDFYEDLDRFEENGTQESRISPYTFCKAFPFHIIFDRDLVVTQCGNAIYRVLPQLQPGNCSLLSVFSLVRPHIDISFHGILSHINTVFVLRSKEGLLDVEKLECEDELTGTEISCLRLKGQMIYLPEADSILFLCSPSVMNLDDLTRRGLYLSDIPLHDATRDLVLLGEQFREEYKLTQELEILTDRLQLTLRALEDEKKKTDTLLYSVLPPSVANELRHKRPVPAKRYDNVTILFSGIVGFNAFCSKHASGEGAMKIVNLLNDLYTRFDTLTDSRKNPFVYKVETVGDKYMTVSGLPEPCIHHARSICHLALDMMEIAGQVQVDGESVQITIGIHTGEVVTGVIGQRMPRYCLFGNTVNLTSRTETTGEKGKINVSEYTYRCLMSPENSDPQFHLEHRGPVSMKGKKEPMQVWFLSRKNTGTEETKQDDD
Test: Cell-based sGC Functional Assay (CASA Assay), cGMP generation
Conditions: CHO-K1/sGC cells, 1 hr at 37° C., cGMP by HTRF; presence or absence of 1 μM DETA-NO not given; read-out: % Act. (percent activation relative to maximum cGMP production of Compound A = 100%)
MEASURED_PARAMETER: Emax (%)

1. CC1(c2ccc(F)cn2)C(=O)Nc2nc(-c3cn4ncnc4c(CCC(F)(F)C(F)(F)F)n3)nc(O)c21 (stereo not shown) [Example 122B]
2. CC1(c2ccc(O)cn2)C(=O)Nc2nc(-c3cn4ncnc4c(CCC(F)(F)C(F)(F)F)n3)nc(N)c21 (stereo not shown) [Example 110A]
Task: Select one. Lower Emax: 1 or 2 Mark your answer with the label of the selected entry.
Output: 2
(2: 70%, 1: 100%)

A. Nc1nc(-c2cn3ncnc3c(CCC(F)(F)F)n2)nc2c1C(c1ccc(F)c(F)c1)(C1CC1)C(=O)N2 (stereo not shown) [Example 83A]
B. CCCc1nc(-c2nc(O)c3c(n2)NC(=O)C3(c2ccc(F)c(F)c2)C2CC2)cn2ncnc12 (stereo not shown) [Example 167A]
Task: Select one. Lower Emax: A or B Mark your answer with the label of the selected entry.
Output: B
(B: 70%, A: 100%)

a. CCCCc1nc(-c2nc(O)c3c(n2)NC(=O)[C@@]3(C)c2ccc(F)cc2)cn2ncnc12 [Example 154A]
b. CC1(c2ccc(Cl)cc2)C(=O)Nc2nc(-c3cn4ncnc4c(CCC(F)(F)F)n3)nc(O)c21 (stereo not shown) [Example 152A]
Task: Select one. Lower Emax: a or b Mark your answer with the label of the selected entry.
Output: b
(b: 70%, a: 100%)
